Test system: SNB-75 CNS
experiment: NCI-60 one-dose screen, 48 h (100 = growth as untreated, 0 = no growth, -100 = all killed)
applied conditions: 10 µM unless noted
Compounds without any hit were thinned out: in the full panel of roughly 83,000, 20% have a hit.
experimental endpoint: growth (%)
The figure you give is taken to be in %; do not add the unit.

Quick one: growth of `C#Cc1cccc(Nc2ncnc3cc(NC(=O)CCl)ccc23)c1` ? -97.2

Quick one: growth of `CN1CCN(Cc2ccc(NC(=O)c3cncc(C#Cc4cnc(N)cc4C#N)c3)cc2C(F)(F)F)CC1` ? 33.2

Quick one: growth of `C[C@H]1[C@H](C)CC[C@]2(C(=O)NCCNCCN)CC[C@]3(C)C(=CC[C@@H]4[C@@]5(C)CCC(=O)C(C)(C)[C@@H]5CC[C@]43C)[C@H]12` ? 65

Quick one: growth of COc1ccc(C(O)c2cc3c(N)c(C(=O)Nc4cccc5ccccc45)sc3nc2C)cc1 (centres undefined) ? 32.5

Quick one: growth of `O=C1/C(=C/c2c[nH]c(=O)[nH]c2=O)SC(=S)N1Cc1ccccc1` ? 80.1

Quick one: growth of `Cc1ccc(C)c2c1sc1nc(N3CCOCC3)c(C#N)c(=O)n12` ? 53.2

Quick one: growth of `NCCCNc1nc2ccccc2c2c(=O)c3cc(Cl)ccc3sc12` ? 47.9

Quick one: growth of `C=C1C(=O)O[C@H]2[C@H]1CC/C(COC(=O)/C=C\C(=O)NCc1ccc(Cn3c(=O)sn(CCCCl)c3=O)cc1)=C\CC[C@@]1(C)O[C@@H]21` ? 88.5

Quick one: growth of `O=c1cc(-c2ccccc2)nc(SCc2nc3cc(Cl)c(Cl)cc3[nH]2)[nH]1` ? 86

====

Tested on: IGROV1 ovarian
experiment: NCI-60 one-dose screen, 48 h (100 = growth as untreated, 0 = no growth, -100 = all killed)
applied conditions: 10 µM unless noted
About 83,000 compounds went through this panel and 20% of them were active in at least one assay; those are over-represented in the sample as a whole.
Provide the reported growth of each item.
The figure you give is taken to be in %; do not add the unit.

Quick one: growth of `CCOC(=O)C#Cc1c(C(=O)OCC)nnn1[C@@H]1O[C@H](COC)[C@@H](OC)[C@H]1OC` ? 95.1

Quick one: growth of `Cc1cc(O)c(=O)cc2c1C[C@H]1CC(C)(C)/C=C/C[C@]3(C)Oc4cc(=O)c(O)cc(C)c4C[C@H]3C[C@H](O)[C@@]1(C)O2` ? 11.2

Quick one: growth of CCn1cc(C(=O)N/N=C/c2cccc(F)c2)c(=O)c2cc(F)c(N3CCNC(C)C3)c(F)c21 (centres undefined) ? 69.4

Quick one: growth of `COc1cc2ncnc(Nc3ccc(F)c(Cl)c3)c2cc1OCC(=O)N1CCOCC1` ? 45.6

Quick one: growth of `CCCCNC(=O)c1ccc2c(c1)nc(-c1ccccc1)n2C1CCCCC1` ? 109

Quick one: growth of `Cc1c2ncccc2nc2[nH]c3ccc(OCCN(C)C)cc3c12` ? 9.29

Quick one: growth of `O=S(=O)(Nc1ccc2ccccc2c1)c1ccc(-c2cnc(C3CC3)o2)cc1` ? 39.1

Quick one: growth of `O=C(c1cccc(N2CCOCC2)n1)c1c[nH]c2ccccc12` ? 70

Quick one: growth of `C=CCN=c1sc(-c2ccc3ccccc3c2)cn1NC(=O)c1cc2ccc1CCc1ccc(cc1)CC2` ? 81.3

====

Test system: HCC-2998 colon
experiment: NCI-60 one-dose screen, 48 h (100 = growth as untreated, 0 = no growth, -100 = all killed)
applied conditions: 10 µM unless noted
This is part of a sample that, as a whole, favours compounds with a hit. Of some 83,000 tested, about 20% had one in any assay.
# strict inequality: growth < 70% yields Condition met, everything else yields Condition not met

State whether 70% exceeds growth recorded for `CCCc1cc(=O)oc2c(C(=O)CC(C)C)c(O)c(CC=C(C)C)c(O)c12` . Condition met

State whether 70% exceeds growth recorded for `O=C(/C=C/c1ccccc1)c1cccc2ccccc12` . Condition met

State whether 70% exceeds growth recorded for `O=S(=O)(Nc1ccc2ccccc2c1)c1ccc(-c2cnc(C3CC3)o2)cc1` . Condition met

State whether 70% exceeds growth recorded for `CCN(CC)CCn1c2ccc(OC)cc2c2sc3cc(O)ccc3c(=O)c21` . Condition met

State whether 70% exceeds growth recorded for `Cc1ccccc1N1CCN(C(=S)c2ccccc2)CC1` . Condition not met

State whether 70% exceeds growth recorded for `Cc1cc(O)c(=O)cc2c1C[C@H]1CC(C)(C)/C=C/C[C@]3(C)Oc4cc(=O)c(O)cc(C)c4C[C@H]3C[C@H](O)[C@@]1(C)O2` . Condition met

State whether 70% exceeds growth recorded for `COc1cc2c3c(c4c5ccccc5[nH]c4c2c(OC)c1OC)C(=O)N(CCN1CCCCC1)C3=O` . Condition met

State whether 70% exceeds growth recorded for `Cc1cc(N2CCN(CC(=O)Nc3ccc4c(ccn4Cc4ccccc4)c3)CC2)nc(N2CCOCC2)n1` . Condition not met

State whether 70% exceeds growth recorded for `CC1=Nc2cnc(Nc3ccc(N4CCCCC4)cc3)nc2Nc2ccccc21` . Condition not met

====

Test system: UACC-62 melanoma
experiment: NCI-60 one-dose screen, 48 h (100 = growth as untreated, 0 = no growth, -100 = all killed)
applied conditions: 10 µM unless noted
This is part of a sample that, as a whole, favours compounds with a hit. Of some 83,000 tested, about 20% had one in any assay.
experimental endpoint: growth (%)
The figure you give is taken to be in %; do not add the unit.

Quick one: growth of `Fc1cccc(CNc2c3ccccc3nc3ccccc23)c1` ? 50.3

Quick one: growth of O=C1C=CC2(O)OC/C(=C\c3ccccc3)C(O)=C2C1=O (configuration not stated) ? -64.1

Quick one: growth of COc1ccc(/C=C/C(c2cc(OC)c(OC)c(OC)c2)n2cncn2)cc1O (configuration not stated) ? 37.5

Quick one: growth of `COc1ccc2c(c1)oc1c(C)c3c(c(C)c12)C(=O)N(CCOS(C)(=O)=O)C3=O` ? 87.8

Quick one: growth of `C#CCOc1cccc(Nc2ncnc3cc(NC(=O)CCl)ccc23)c1` ? -73.9

Quick one: growth of `CCN(CC)CCOc1ccc(/C(=C(\C)Cc2ccc(OC)cc2)c2ccc(OC(=O)NCc3ccccc3)cc2)cc1` ? 34.3

Quick one: growth of `CC(C)(C)CC(C)(C)Nc1c(-c2c(O)c3ccccc3oc2=O)nc2sc3ccccc3n12` ? 30.4

Quick one: growth of `Clc1ccc(-c2nc(C(Cl)Cl)nc3cc(-c4ccccc4)nn23)cc1` ? 79.8

Quick one: growth of `Cc1cc(=O)oc2cc(Oc3nc(Br)cn4c(Br)cnc34)ccc12` ? 85.2

Quick one: growth of `Cc1ccc(-c2csc(NC(=O)CSc3nc(N)cc(N)n3)n2)cc1` ? 55.1

Quick one: growth of `COC(=O)[C@@]12CC=C(C)[C@]3(C[C@H](c4ccoc4)OC3=O)[C@H]1C=C[C@@H](O)[C@@]2(O)C(=O)OC` ? 92.8

Quick one: growth of `Cn1cc(-c2nonc2-c2c[nH]c3ccccc23)c2cc(Br)ccc21` ? 34.2

Quick one: growth of `CC1=C2[C@@H](CC1)[C@]1(C)O[C@@](C3CCNCC3)(C[C@H]1OC(=O)CO)[C@H]2OC(=O)/C=C/c1ccccc1` ? 93.3

Quick one: growth of `CS(=O)(=O)c1ccc(-c2nc3ccccc3n2CC(=O)N/N=C/c2ccccc2)cc1` ? 94.4

Quick one: growth of `COc1cc(/C=C2\C(=O)N(CCCOc3cc(O)c4c(=O)cc(-c5ccccc5)oc4c3)c3ccccc32)cc(OC)c1O` ? 46.8

Quick one: growth of `COc1cc2c(cc1-c1c(C)noc1C)ncc1nc(CN3CCOCC3)n([C@H](C)COC(F)F)c12` ? 17.4

Quick one: growth of `O=C1/C(=C/c2c[nH]c(=O)[nH]c2=O)SC(=S)N1Cc1ccccc1` ? 91.5

Quick one: growth of `FC(F)(F)c1[nH]ncc1-c1nc2ccc3[nH]ncc3c2c2c1CCCC2` ? 9.03

Quick one: growth of `CCCCCc1ccc(S(=O)(=O)Nc2cc(-c3csc(NC(C)=O)n3)ccc2N2CCN(C)CC2)cc1` ? -56.2

Quick one: growth of `O=c1c2ccccc2n(C[C@H]2CO2)c2ccccc12` ? -83.4

Quick one: growth of `O=C(Nc1cccnc1Nc1ccccc1)c1cn(Cc2cccc(Oc3ccccc3)c2)nn1` ? 32.8

Quick one: growth of `COc1ccc(C/C(C)=C(\c2ccc(Cl)cc2)c2ccc(OCCCN(C)C)cc2)cc1` ? 94.5

Quick one: growth of COc1ccc(CN2C(=O)OC(C)(COC(C)=O)C2=O)cc1 (configuration not stated) ? 95.6

Quick one: growth of `CCOC(=O)C/C(=N\Nc1cc(=O)[nH]c2ccc(C)cc12)C(=O)OCC` ? 91.1

Quick one: growth of `COc1ccc(OC)c(Nc2nnc(-c3cc(OC)c(OC)c(OC)c3)o2)c1` ? 87.8

Quick one: growth of `CNC(=O)Nc1ccc(-c2ccc3ncnc(Nc4cccc(Cl)c4)c3c2)cc1` ? 64.7

Quick one: growth of `Nc1c(C(=O)Nc2cccc3ncccc23)sc2nc3c(cc12)CN(Cc1ccccc1)CC3` ? 53.5

Quick one: growth of `Cc1cc(O)c(=O)cc2c1C[C@H]1CC(C)(C)/C=C/C[C@]3(C)Oc4cc(=O)c(O)cc(C)c4C[C@H]3C[C@H](O)[C@@]1(C)O2` ? -56.5

Quick one: growth of `O=C(/C=C/c1cccc(Oc2ccccc2)c1)c1ccc(Nc2nc(Nc3ccc(F)cc3)nc(Nc3ccc(Cl)cc3)n2)cc1` ? 105

Quick one: growth of `CCN(CC)c1ccc(-c2cc(-c3cc(OC)c(OC)c(OC)c3)nc(N3CCC(O)CC3)c2C#N)cc1` ? -49.9

Quick one: growth of `C/C=C1/CN(CCCCC)CC[C@H]1C(=O)c1cc2ccccc2[nH]1` ? 95

Quick one: growth of `CN(C)c1ccc([C@@H](C(=O)Nc2cccc([N+](=O)[O-])c2)N(C(=O)c2cc3ccccc3[nH]2)c2cccc([N+](=O)[O-])c2)cc1` ? 86.7

Quick one: growth of `COc1ccc(C(=O)/C=C/c2ccccc2)cc1S(N)(=O)=O` ? 79.2

Quick one: growth of `CN(C)/C(N)=N/N=C(\c1ccccc1)c1ccccn1` ? 105

Quick one: growth of `COc1cc2c(cc1OCCCN1CCN(C(=S)SCCC(C#N)(c3ccccc3)c3ccccc3)CC1)N=C[C@@H]1CCCN1C2=O` ? -72

Quick one: growth of `Cc1cc2oc(/C=C/c3ccccc3)cc(=O)c2c(C)c1Cl` ? 90.5

Quick one: growth of `C=C(C)[C@@H]1CC[C@]2(C(=O)Nc3ccccn3)CC[C@]3(C)[C@H](CC[C@@H]4[C@@]5(C)CCCNC(C)(C)[C@@H]5CC[C@]43C)[C@@H]12` ? 36.1
